- measured-target: GSK3β kinase (Homo sapiens, UniProt P49841)
- Sequence (P49841 whole entry): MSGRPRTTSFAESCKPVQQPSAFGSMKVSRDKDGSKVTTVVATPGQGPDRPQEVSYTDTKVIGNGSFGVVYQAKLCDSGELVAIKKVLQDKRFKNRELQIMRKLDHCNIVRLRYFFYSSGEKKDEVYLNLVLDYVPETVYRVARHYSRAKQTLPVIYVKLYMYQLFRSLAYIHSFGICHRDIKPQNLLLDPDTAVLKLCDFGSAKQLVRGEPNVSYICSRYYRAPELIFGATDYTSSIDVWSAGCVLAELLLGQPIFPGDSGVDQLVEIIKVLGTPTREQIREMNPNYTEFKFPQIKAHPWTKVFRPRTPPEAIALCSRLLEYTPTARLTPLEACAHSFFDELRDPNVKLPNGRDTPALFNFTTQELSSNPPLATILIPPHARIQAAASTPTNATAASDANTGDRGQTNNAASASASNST
- assay-procedure: GSK3β kinase activity (Ser/Thr 09 peptide Z-lyte FRET assay)
- Type: biochemical
- condition-summary: recombinant kinase, 46 μM ATP, one hour at room temperature; read-out: EC50
reported-endpoint: EC50 (nM)
Your answer is read as nM, so omit the unit and give the number.

Below are worked cases with known answers.
[
  {
    "compound": "Cn1cc(-c2ccc3cnc(NC(=O)CCc4ccccc4)nc3c2)cn1",
    "units": "nM",
    "EC50": 55
  },
  {
    "compound": "Cc1nnc(-c2ccc3cnc(NC(=O)CN4C5CCC4COC5)nc3c2)s1",
    "units": "nM",
    "EC50": 224
  }
]

Let me know recorded EC50 for CC(C(=O)Nc1cc2nc(-c3cnn(C)c3)ccc2cn1)N1CCCCC1 (stereo not drawn) , thanks.
62

Give me measured EC50, please, for this compound: "CN(C)CCNc1cc(C(=O)Nc2cc3nc(-c4cnn(C)c4)ccc3cn2)ccn1"
4010

Please give measured EC50 of the following entry: "Cn1cc(-c2cc3cc(NC(=O)C4CCN(CC5(C(F)(F)F)CC5)CC4)ncc3cn2)nn1"
305

Identify the reported EC50 for the following entry. "Cn1ncc(-c2cc3cc(NC(=O)c4ccnc(N5CCOCC5)c4)ncc3cn2)c1CN1CCOCC1"
79

Give me measured EC50, please, for this compound: "Cc1ncc(-c2ccc3cnc(NC(=O)[C@H]4C[C@H](N5CCOCC5)C4)nc3c2)o1"
707

Answer with the recorded EC50 for the compound listed here: "CC(C)OCCC(=O)Nc1cc2nc(-c3cncn3C)ccc2cn1"
49

Give reported EC50 value for "Cn1cc(-c2cnc3cnc(NC(=O)C4CCN(CC5(C(F)(F)F)CC5)CC4)cc3c2)nn1"
836

Provide only the value of recorded EC50 for "CN(C)[C@H]1CC[C@H](C(=O)Nc2ncc3ccc(-c4cncs4)cc3n2)CC1"
253

Supply measured EC50 of "Cn1cc(-c2cc3cc(NC(=O)c4ccc5ccoc5c4)ncc3cn2)cn1" in your reply.
1470

Identify measured EC50 corresponding to "Cn1cc(-c2ccc3cnc(NC(=O)CCc4ccccc4)cc3n2)cn1"
17

Complete the entry with EC50 for "Cc1ncc(-c2ccc3cnc(NC(=O)[C@H]4C[C@H](N5CCOCC5)C4)cc3n2)o1"
86

Quickly give me recorded EC50 for "CN1CCN(c2ncc(C(=O)Nc3ncc4ccc(-c5cnn(C)c5)cc4n3)s2)CC1"
2180

Tell us which EC50 value is on record for "Cn1cc(-c2ccc3cnc(NC(=O)C4CCN(Cc5ncco5)CC4)cc3n2)cn1"
84

Consider the compound "O=C(Nc1cc2nc(-c3cncs3)ccc2cn1)[C@H]1CC[C@H](CN2CC(F)C2)CC1" . State its measured EC50.
219

Return value of EC50 for input "Cn1cc(-c2ccc3cnc(NC(=O)C4CCN(S(C)(=O)=O)CC4)cc3n2)cn1" , no commentary.
18

Look up EC50 of "Cn1cc(-c2cnc3cnc(NC(=O)C4CCN(S(C)(=O)=O)CC4)cc3c2)cn1" and report it.
1150

Query EC50 for "COC1CCN(CC(=O)Nc2cc3nc(-c4cn(C)nn4)ccc3cn2)CC1"
560
